// values below are reported relative binding affinity (RBA)
Target: Type-1 angiotensin II receptor (Oryctolagus cuniculus) (UniProt P34976)
Sequence (whole entry): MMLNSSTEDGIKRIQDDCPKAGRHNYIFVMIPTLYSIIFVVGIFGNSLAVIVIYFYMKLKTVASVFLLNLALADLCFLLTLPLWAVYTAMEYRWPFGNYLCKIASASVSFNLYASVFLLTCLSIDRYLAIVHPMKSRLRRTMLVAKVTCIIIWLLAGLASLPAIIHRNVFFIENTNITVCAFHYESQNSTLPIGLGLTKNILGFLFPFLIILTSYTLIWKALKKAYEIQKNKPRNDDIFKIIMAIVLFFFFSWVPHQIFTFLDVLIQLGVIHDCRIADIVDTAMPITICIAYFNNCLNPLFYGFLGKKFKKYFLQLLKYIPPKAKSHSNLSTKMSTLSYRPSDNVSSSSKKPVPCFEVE
Test: Relative binding affinity of the compound assessed as ratio of [Asp1,Ile5]angiotensin II ED50 to compound ED50 for angiotensin 2 receptor in rabbit aortic strips
Peptide text beside a SMILES is read from it. * marks the point of attachment. X2 = O=C(O)c1cc(NC(=S)*)ccc1-c1c2ccc(=O)cc-2oc2cc(O)ccc12; X1 = O=Cc1ccc(C(=O)*)cc1
No unit in the answer, only the number.

Known results for compounds:
Entry CC(C)[C@H](NC(=O)[C@H](CCCNC(=N)N)NC(=O)[C@H](CC(N)=O)NC(=S)Nc1ccc(-c2c3ccc(=O)cc-3oc3cc(O)ccc23)c(C(=O)O)c1)C(=O)N[C@@H](Cc1ccc(O)cc1)C(=O)N[C@H](C(=O)N[C@@H](Cc1cnc[nH]1)C(=O)N1CCC[C@H]1C(=O)N[C@@H](Cc1ccccc1)C(=O)O)C(C)C (X2-NRVYVHPF-OH) — recorded relative binding affinity (RBA) = 1

Entry `CCCC[C@H](NC(=O)c1cc(N=[N+]=[N-])ccc1[N+](=O)[O-])C(=O)N[C@@H](CC(=O)O)C(=O)N[C@@H](CCCNC(=N)N)C(=O)N[C@H](C(=O)N[C@@H](Cc1ccc(O)cc1)C(=O)N[C@H](C(=O)N[C@@H](Cc1cnc[nH]1)C(=O)N1CCC[C@H]1C(=O)N[C@@H](Cc1ccccc1)C(=O)O)[C@@H](C)CC)C(C)C` — recorded relative binding affinity (RBA) = 0.5

Entry CC(C)[C@H](NC(=O)[C@H](CCCNC(=N)N)NC(=O)[C@H](CC(N)=O)NC(=O)c1ccc(C=O)cc1)C(=O)N[C@@H](Cc1ccc(O)cc1)C(=O)N[C@H](C(=O)N[C@@H](Cc1cnc[nH]1)C(=O)N1CCC[C@H]1C(=O)N[C@@H](Cc1ccccc1)C(=O)O)C(C)C (X1-NRVYVHPF-OH) — recorded relative binding affinity (RBA) = 8

Note: attention shifts to another entry.
Entry CC[C@H](C)[C@H](NC(=O)[C@H](Cc1ccc(O)cc1)NC(=O)[C@@H](NC(=O)[C@H](CCCNC(=N)N)NC(=O)[C@H](CC(=O)O)N1C=C(c2ccccc2)C(=O)C1(O)c1ccccc1)C(C)C)C(=O)N[C@@H](Cc1cnc[nH]1)C(=O)N1CCC[C@H]1C(=O)N[C@@H](Cc1ccccc1)C(=O)O (some centres undefined) — recorded relative binding affinity (RBA) = 3

Taken from ChEMBL document CHEMBL3272218.
